- Tested on: Streptococcus pneumoniae
- test.description: Minimum inhibitory concentration against Streptococcus pneumoniae SV-1
- Assay type: functional
- measurement.parameters: Streptococcus pneumoniae; read-out: MIC
experimental.readout: MIC
Kindly write the number and append the unit.

Entry Nc1c(F)c(N2CC(N)C(c3ccc(F)cc3)C2)c(F)c2c1c(=O)c(C(=O)O)cn2C1CC1 (trans isomer) has what MIC?
0.1 µg/mL

Entry NCC1CN(c2nc3c(cc2F)c(=O)c(C(=O)O)cn3C2CC2)CC1c1ccccc1 (trans isomer) has what MIC?
0.013 µg/mL

Entry CCOC(=O)C1CC1C1CN(c2cc3c(cc2F)c(=O)c(C(=O)O)cn3C2CC2)CC1N (trans isomer) has what MIC?
0.8 µg/mL

Entry NCc1cccc(C2CN(c3c(F)cc4c(=O)c(C(=O)O)cn(C5CC5)c4c3F)CC2CN)c1 (trans isomer) has what MIC?
0.2 µg/mL

Entry NCC1CN(c2c(F)cc3c(=O)c(C(=O)O)cn(C4CC4)c3c2F)CC1c1ccccc1 (trans isomer) has what MIC?
0.013 µg/mL

Entry NCC1CN(c2nc3c(cc2F)c(=O)c(C(=O)O)cn3C2CC2)CC1c1ccco1 (trans isomer) has what MIC?
0.025 µg/mL

Entry NC1CN(c2c(F)cc3c(=O)c(C(=O)O)cn(C4CC4)c3c2F)CC1c1ccc(Cl)c(Cl)c1 (trans isomer) has what MIC?
0.1 µg/mL

Entry CN(C)c1ccc(C2CN(c3c(F)cc4c(=O)c(C(=O)O)cn(C5CC5)c4c3F)CC2N)cc1 (stereo unspecified) has what MIC?
0.1 µg/mL

Entry CC(C)c1ccc(C2CN(c3c(F)cc4c(=O)c(C(=O)O)cn(C5CC5)c4c3F)CC2N)cc1 (trans isomer) has what MIC?
0.2 µg/mL

Entry NC1CN(c2cc3c(cc2F)c(=O)c(C(=O)O)cn3C2CC2)CC1C1CC1 (stereo unspecified) has what MIC?
0.1 µg/mL

Entry NC1CN(c2nc3c(cc2F)c(=O)c(C(=O)O)cn3C2CC2)CC1c1ccccc1 (stereo unspecified) has what MIC?
0.1 µg/mL

Entry NC1CN(c2c(F)cc3c(=O)c(C(=O)O)cn(C4CC4)c3c2F)CC1c1ccccc1 (trans isomer) has what MIC?
0.1 µg/mL

Entry NCC1CN(c2c(F)c(N)c3c(=O)c(C(=O)O)cn(C4CC4)c3c2F)CC1c1ccccc1 (trans isomer) has what MIC?
0.003 µg/mL

Entry NCc1cccc(C2CN(c3nc4c(cc3F)c(=O)c(C(=O)O)cn4C3CC3)CC2CN)c1 (trans isomer) has what MIC?
0.8 µg/mL

Entry NCC1CN(c2c(F)c(N)c3c(=O)c(C(=O)O)cn(C4CC4)c3c2F)CC1c1ccc(N)cc1 (trans isomer) has what MIC?
0.013 µg/mL

Entry CN(C)c1ccc(C2CN(c3nc4c(cc3F)c(=O)c(C(=O)O)cn4C3CC3)CC2N)cc1 (trans isomer) has what MIC?
0.2 µg/mL
